Target: human CTPS1 (Homo sapiens)
Sequence (P17812 1-591): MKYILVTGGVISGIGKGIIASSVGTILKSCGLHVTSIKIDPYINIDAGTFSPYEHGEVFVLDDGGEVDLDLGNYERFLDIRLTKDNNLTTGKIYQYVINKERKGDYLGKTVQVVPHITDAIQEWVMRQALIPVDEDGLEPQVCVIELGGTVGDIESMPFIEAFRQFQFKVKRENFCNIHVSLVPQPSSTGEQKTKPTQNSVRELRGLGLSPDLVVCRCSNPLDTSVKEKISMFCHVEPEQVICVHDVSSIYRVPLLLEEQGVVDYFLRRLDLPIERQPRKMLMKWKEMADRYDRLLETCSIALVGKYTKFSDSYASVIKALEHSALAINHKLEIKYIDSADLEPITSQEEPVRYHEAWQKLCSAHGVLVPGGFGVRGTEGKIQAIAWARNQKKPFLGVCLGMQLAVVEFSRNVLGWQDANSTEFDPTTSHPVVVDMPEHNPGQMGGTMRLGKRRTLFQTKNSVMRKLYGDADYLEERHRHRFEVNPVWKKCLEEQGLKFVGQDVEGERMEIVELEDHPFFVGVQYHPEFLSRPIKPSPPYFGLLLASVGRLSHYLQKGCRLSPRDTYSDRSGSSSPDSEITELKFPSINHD
Experiment: ADP-Glo assay, human CTPS1 enzyme inhibition
Type: biochemical
Conditions: wild-type human CTPS1, 25 nM enzyme; ADP-Glo; read-out: ADP-Glo_WT_hCTPS1—25 nM_IC50 (IC50)
Method: The enzyme inhibitory activities of the compounds of the invention against the target of interest were determined using the ADP-Glo™ assay (Promega). […] Purified human CTPS1 protein was prepared in 1× assay buffer to the final working protein concentration required for the reaction. […] This mixture was incubated for an appropriate amount of time within the determined linear phase of the reaction at 25 degrees C. under sealed plate conditions with constant agitation at 500 revolutions per minute (rpm). […]
Counter-ions that a name gives are not always drawn.
So I've got a bunch of compounds here, and I need their IC50 values.

Returns the measured IC50 for the input compound. Input: O=C(N[C@H](c1cc(NS(=O)(=O)C2CC2)ccn1)[C@@H]1COCCO1)c1ncc(-c2cnn3ccc(Cl)cc23)s1 [I-78]
5 to 25 nM

Name the recorded IC50 for CCOc1cncc(-c2cnc(C(=O)N[C@@H](CN3C[C@H]4COC[C@H]4C3)c3cc(NS(=O)(=O)C4CC4)ccn3)s2)n1 (single isomer, unassigned) [I-30] .
25 to 50 nM

Which IC50 value is on record for CCOc1cncc(-c2cnc(C(=O)N[C@@H](c3cc(NS(=O)(=O)C4CC4)ccn3)C(C)(C)CN(C)C)s2)n1 [I-43] ?
5 to 25 nM

What IC50 value was documented for this compound, CCOc1cncc(-c2cnc(C(=O)N[C@H](CN3[C@@H]4CC[C@H]3COC4)c3cc(NS(=O)(=O)C4CC4)ccn3)s2)n1 (single isomer, unassigned) [I-37] ?
5 to 25 nM

Any idea what its IC50 is? The compound is CCOc1cncc(-c2cnc(C(=O)N[C@@H](CCN3CCCC4(CC4)C3)c3cc(NS(=O)(=O)C4CC4)ccn3)s2)n1 (single isomer, unassigned) [I-18]
> 100 nM

I'd like to know its IC50. The compound in question is O=C(N[C@H](c1cc(NS(=O)(=O)C2CC2)ccn1)[C@H]1COCCO1)c1ncc(-c2cnn3ccc(Cl)cc23)s1 [I-77]
5 to 25 nM

What value of IC50 has been recorded for this entry: CCOc1cncc(-c2cnc(C(=O)N[C@H](CN3CC4(CCC4)C3)c3cc(NS(=O)(=O)C4CC4)ccn3)s2)n1 [I-154]
5 to 25 nM

Can you look up the measured IC50 of CCOc1cncc(-c2cnc(C(=O)N[C@H](c3cc(NS(=O)(=O)C4CC4)ccn3)[C@H]3CCN(C4CCCC4)C3)s2)n1 [I-93] for me?
5 to 25 nM

Name the reported IC50 value associated with the compound CCOc1cncc(-c2cnc(C(=O)N[C@@H](c3cccc(NS(=O)(=O)C(F)F)c3)C3CCOCC3)s2)n1 [I-195]
5 to 25 nM

Tell me the measured IC50 of CCOc1cncc(-c2cnc(C(=O)N[C@@H](c3cc(NS(=O)(=O)C4CC4)ccn3)[C@H](C)N3C[C@H]4C[C@@H]3CO4)s2)n1 [I-168] , please.
5 to 25 nM

Reported IC50 for CCOc1cncc(-c2cnc(C(=O)N[C@@H](c3cc(NS(=O)(=O)C4CC4)ccn3)[C@@H]3CCCN3C)s2)n1 [I-117] : what is it?
5 to 25 nM

Recorded IC50 of CCOc1cncc(-c2cnc(C(=O)N[C@H](CN3CCCC3=O)c3cc(NS(=O)(=O)C4CC4)ccn3)s2)n1 [I-137] , please.
25 to 50 nM

Can you share its IC50? I mean this compound: CCOc1cncc(-c2cnc(C(=O)N[C@H](CN3CC[C@](C)(O)C3)c3cccc(NS(=O)(=O)C(F)F)c3)s2)n1 [I-208, formic acid salt]
5 to 25 nM
